system: bovine annulus fibrosus (AF) cells; test: Proteoglycan synthesis by 35SO4 incorporation, cells in alginate beads; format: cell-based; conditions: 48 h, 16-mer peptides 1 μg/mL, 8-mer peptides 0.5 μg/mL, vs medium alone
reported endpoint: proteoglycan synthesis (35SO4 incorporation)

{"item sequence": "HIARDHDLTYNDSLHD [R-Link N, reverse Link N]", "recorded measurement": "no effect was observed"}
{"item sequence": "DLNRAHLHIDYHTDSD [S-Link N, scrambled Link N]", "recorded measurement": "no effect was observed"}

----------
system: human nucleus pulposus (NP) cells; test: Proteoglycan synthesis by 35SO4 incorporation, cells in alginate beads; assay type: cell-based; conditions: 48 h, 16-mer peptides 1 μg/mL, 8-mer peptides 0.5 μg/mL, vs medium alone
reported endpoint: proteoglycan synthesis (35SO4 incorporation)

{"item sequence": "LDHDRAIH [Link N 9-16, second 8 peptide residues of Link N]", "test system": "human nucleus pulposus (NP) cells", "recorded measurement": "no response"}
{"item sequence": "DLNRAHLHIDYHTDSD [S-Link N, scrambled Link N]", "test system": "human nucleus pulposus (NP) cells", "recorded measurement": "no response"}
{"item sequence": "HIARDHDLTYNDSLHD [R-Link N, reverse Link N]", "test system": "human nucleus pulposus (NP) cells", "recorded measurement": "no response"}

Origin of values: patent US10202420B2
